System: human PBMCs
Assay: Human PBMC cytokine response assay (IFN-γ and IFN-α in cell-free medium by ELISA), with or without cPLGA
Assay type: cell-based
Conditions: Table 25; donor 28250; polynucleotides/spacers at amounts equivalent to the CIC, spacers alone 9 uM
Strand notation (5' to 3'): a small letter for the sugar, then the base; units joined by * are phosphorothioate-linked, units joined directly phosphodiester-linked; [ ] holds rarer units or linkages, { } end groups; capitals alone tell only the bases. d = 2'-deoxy (DNA)
Please assign NOT MET whenever IFN-g is at or above 100 pg/mL, and MET whenever it is below.

1) 5′-TCGAGAT-3′ [Compound P-13, reference compound] = MET
2) 5′-TCGTCG-3′-HEG-5′-ACGTTCG-3′-HEG-5′-AGATGAT-3′ [Compound C-10] = NOT MET
3) 5′-AGATGAT-3′ [Compound P-4, reference compound] = MET
4) 5′-TCGTCGA-3′ [Compound P-1, reference compound] = MET
5) 5′-ACGTTCG-3′ [Compound P-3, reference compound] = MET
6) (5′-TCGACGT-3′-HEG)2-glycerol-HEG-5′-TCGACGT-3′ [Compound C-101] = NOT MET
7) 5′-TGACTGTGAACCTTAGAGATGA-3′ (SEQ ID NO: 3) (dT*dG*dA*dC*dT*dG*dT*dG*dA*dA*dC*dC*dT*dT*dA*dG*dA*dG*dA*dT*dG*dA) [Compound P-7, negative control, reference compound] = NOT MET
8) 5′-TCGACGT-3′-HEG-5′-TCGACGT-3′-HEG-5′-TCGACGT-3′ [Compound C-51] = NOT MET
9) 5′-TCGACGT-3′ [Compound P-14, reference compound] = MET
10) (5′-TCGTCGA-3′-HEG)2-glycerol-HEG-5′-TCGTCGA-3′ [Compound C-94] = NOT MET
11) 5′-TCGAGAT-3′-HEG-5′-TCGAGAT-3′-HEG-5′-TCGAGAT-3′ [Compound C-45] = NOT MET
12) 5′-TCGTCGA-3′-HEG-5′-TCGTCGA-3′-HEG-5′-TCGTCGA-3′ [Compound C-21] = NOT MET
13) 5′-TCGTCG-3′ [Compound P-2, reference compound] = MET

----------
The substances listed here are annotated with their IFN-α (pg/ml) 28066.
System: human PBMCs
Test: Human PBMC cytokine response assay (IFN-γ and IFN-α in cell-free medium by ELISA), with or without cPLGA
Format: cell-based
Details: donor 28066; 20 ug/ml, 24 h; + PLGA = premixed with 100 μg/ml cPLGA
Strand notation (5' to 3'): a small letter for the sugar, then the base; units joined by * are phosphorothioate-linked, units joined directly phosphodiester-linked; [ ] holds rarer units or linkages, { } end groups; capitals alone tell only the bases. d = 2'-deoxy (DNA)
OBSERVED_PROPERTY: IFN-α (pg/ml) 28066 (pg/mL)

1. 5′-TCGTCGA-3′-HEG-5′-TCGTCGA-3′-HEG-5′-TCGTCGA-3′ [Compound C-21] = 24
2. 5′-TCGTCGA-3′- C3-5′-ACGTTCG-3′-C3-5′-AGATGAT-3′ [Compound C-9] = 0
3. 5′-TCGTCG-3′-abasic-5′-ACGTTCG-3′-abasic-5′-AGATGAT-3′ [Compound C-20] = 5
4. 5′-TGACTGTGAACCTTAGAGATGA-3′ (SEQ ID NO: 3) (dT*dG*dA*dC*dT*dG*dT*dG*dA*dA*dC*dC*dT*dT*dA*dG*dA*dG*dA*dT*dG*dA) [Compound P-7, negative control, reference compound] = 8
5. 5′-TCGTCG-3′-TEG-5′-ACGTTCG-3′-TEG-5′-AGATGAT-3′ [Compound C-18] = 9
6. 5′-ACGTTCG-3′ [Compound P-3, reference compound] = 0
7. 5′-TCGTCG-3′-C4-5′-ACGTTCG-3′-C4-5′-AGATGAT-3′ [Compound C-17] = 0
